Tested on: P388 leukemia ip, CD2F1 mice, survival T/C
PROTOCOL NOTES: NCI In Vivo Anticancer Drug Screen. Data for tumor model P388 Leukemia (intraperitoneal) in CD2F1 (CDF1) mice
CONDITIONS: endpoint: median survival time; dose: 60.0 mg/kg/injection; schedule: Q01DX005 (ip); vehicle: saline with Tween-80; higher = longer survival
Inconclusive results and toxic doses are left out.
ASSAY METRIC: T/C

// Input: N#Cc1c2c(c(Cl)n3c1nc1ccccc13)CCC2 . Output its T/C only.
100 % of control

// Input: Nc1ncnc2c1ncn2CCOCC(O)CO (configuration not stated) . Output its T/C only.
100 % of control

// Input: O=C(CC1=NC2NN(c3ccccc3)C(=O)C2=C1CC(=O)c1ccc([N+](=O)[O-])cc1)c1ccc([N+](=O)[O-])cc1 (configuration not stated) . Output its T/C only.
99 % of control

// Input: NC(CSC1c2ccccc2-c2ccccc21)C(=O)O (configuration not stated) . Output its T/C only.
90 % of control

// Input: Clc1ccc(C2=NON(c3ncccn3)C3N=CC=CN23)cc1 (configuration not stated) . Output its T/C only.
87 % of control

// Input: COc1ccc(C(=O)CCc2c(-c3ccccc3)[nH]c3ccccc23)c(O)c1 . Output its T/C only.
107 % of control

// Input: CCOc1cccc(C=N)c1O . Output its T/C only.
111 % of control

// Input: O=S(=O)(c1ccc(F)cc1)N(CCCCCN(S(=O)(=O)c1ccc(F)cc1)S(=O)(=O)c1ccc(F)cc1)S(=O)(=O)c1ccc(F)cc1 . Output its T/C only.
97 % of control

// Input: COc1ccc(-n2c(CSc3ccc(Cl)cc3)n[nH]c2=S)cc1 . Output its T/C only.
104 % of control

// Input: CC1C2C=CC1C(c1c3ccc(=O)cc-3oc3cc(O)ccc13)C2C(=O)O (configuration not stated) . Output its T/C only.
99 % of control

// Input: O=C(N/C(=C\c1ccc(Cl)cc1)c1nc2ccccc2s1)c1ccccc1 . Output its T/C only.
111 % of control

// Input: CC1C(=O)OC(C(Cl)(Cl)Cl)N1C (configuration not stated) . Output its T/C only.
97 % of control

---

Test system: P388 leukemia ip, CD2F1 mice, survival T/C
PROTOCOL NOTES: NCI In Vivo Anticancer Drug Screen. Data for tumor model P388 Leukemia (intraperitoneal) in CD2F1 (CDF1) mice
CONDITIONS: endpoint: median survival time; dose: 60.0 mg/kg/injection; schedule: Q01DX005 (ip); vehicle: saline with Tween-80; higher = longer survival
Toxic doses and inconclusive results are not listed.
Assign T/C to each entry below.

// Input: Cc1ccc(C(=O)C[n+]2ccccc2)c(O)c1 . Output its T/C only.
98 % of control

// Input: NC1=NN(Cc2nnc(-c3ccccc3)s2)C(=O)C1 . Output its T/C only.
93 % of control

// Input: CN1CCN(c2c(C(=O)Nc3ccc([N+](=O)[O-])cc3)cc([N+](=O)[O-])cc2[N+](=O)[O-])CC1 . Output its T/C only.
92 % of control

// Input: N#CC(C(=O)C(N)=O)c1ccc(Cl)cc1Cl (stereo unspecified) . Output its T/C only.
104 % of control

// Input: C/C=C(\CC)C(C#N)O[Si](C)(C)C (stereo unspecified) . Output its T/C only.
93 % of control

// Input: COC(=O)/C=C(\CCl)N=[N+]=[N-] . Output its T/C only.
108 % of control
